- experiment notes: Growth inhibition of human PL45 cells at 5 uM after 24 hrs by [3H]thymidine uptake assay
- Format: functional
- cond: read-out: GI
property name: inhibition of growth at 5 µM (%)

{"columns": ["smiles string", "property name", "quantitative result"],
 "data": [
  ["CC(C)C[C@@H]1NC(=O)[C@H](CC(C)C)NC(=O)[C@@H](Cc2ccccc2)NC(=O)[C@@H](CC(C)C)NC(=O)[C@@H](C(C)C)NC(=O)[C@@H](CC(C)C)NC(=O)[C@H](CC(C)C)NC(=O)[C@@H](Cc2ccccc2)NC(=O)[C@@H](CC(C)C)NC(=O)[C@@H](C(C)C)NC1=O", "inhibition of growth at 5 µM", 8]
]}

Reference source for all entries: ChEMBL document CHEMBL1154751
